Cited source: the NIST ThermoML archive (doi:10.1016/j.jct.2015.10.004)

assay: mn = molality of the nth substance listed, in mol/kg; conditions: 298.15 K; 101 kPa; Liquid; Alternating current cell with electrodes; m1 = 0.05
endpoint: electrical conductivity (S/m)

>>> df
                                   molecule  meas_value
0  NCC(=O)N[C@@H](CCC(N)=O)C(=O)O [glycyl-l-glutamine] + O     0.00366
1  C[C@H](N)C(=O)N[C@@H](CCC(N)=O)C(=O)O [L-alanyl-L-glutamine] + O     0.00364
2       NCC(=O)NCC(=O)O [glycylglycine] + O     0.00355
3  CC(C)C[C@H](NC(=O)CN)C(=O)O [glycyl-L-leucine] + O     0.00345
4  CC(C)[C@H](NC(=O)CN)C(=O)O [glycyl-L-valine] + O     0.00347
